molecular target: endogenous TEA domain protein (TEAD), detected with a pan-TEAD antibody, P28347; assay: co-immunoprecipitation (α-Flag) with western blot quantification; settings: chain shown with the change; lysates of transiently transfected HeLa cells; n = 3; parent: est. 1.0; read off a plot
Sequence (P28347 whole entry, the tested form may be a part): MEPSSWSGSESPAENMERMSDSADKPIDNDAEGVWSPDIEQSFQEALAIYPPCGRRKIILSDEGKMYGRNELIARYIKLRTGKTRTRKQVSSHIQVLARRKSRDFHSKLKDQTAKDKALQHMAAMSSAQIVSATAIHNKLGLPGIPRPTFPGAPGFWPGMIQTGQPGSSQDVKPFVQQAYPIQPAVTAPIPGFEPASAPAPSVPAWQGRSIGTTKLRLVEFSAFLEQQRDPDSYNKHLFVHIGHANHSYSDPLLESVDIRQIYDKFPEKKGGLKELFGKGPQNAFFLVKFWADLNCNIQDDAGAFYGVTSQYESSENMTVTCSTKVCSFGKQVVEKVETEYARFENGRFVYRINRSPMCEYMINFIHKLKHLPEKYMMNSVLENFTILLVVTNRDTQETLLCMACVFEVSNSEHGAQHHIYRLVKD
QUANTITY: ratio to parent
Lab note: record just the number, no unit beside it.

Task item: Consider the binder Flag-tagged wild-type GBP-1 fragment α7–13 (residues 311–582), P32455 L411A; Q412A; V413A; I414A; F415A; S416A; P417A (protein) CMENAVLALAQIENSAAVQKAIAHYEQQMGQKVQLPTETLQELLDLHRDSEREAIEVFIRSSFKDVDHLFQKELAAQLEKKRDDFCKQNQEASSDRCSALAAAAAAALEEEVKAGIYSKPGGYRLFVQKLQDLKKKYYEEPRKGIQAEEILQTYLKSKESMTDAILQTDQTLTEKEKEIEVERVKAESAQASAKMLQEMQRKNEQMMEQKERSYQEHLKQLTEKMENDRVQLLKEQERTLALKLQEQEQLLKEGFQKESRIMKNEIQDLQTK and give its measured ratio to parent.
Reply: 1.2
